Target: T1, human NPY2 receptor (human, UniProt P49146 1-381)
T1 sequence (looked up): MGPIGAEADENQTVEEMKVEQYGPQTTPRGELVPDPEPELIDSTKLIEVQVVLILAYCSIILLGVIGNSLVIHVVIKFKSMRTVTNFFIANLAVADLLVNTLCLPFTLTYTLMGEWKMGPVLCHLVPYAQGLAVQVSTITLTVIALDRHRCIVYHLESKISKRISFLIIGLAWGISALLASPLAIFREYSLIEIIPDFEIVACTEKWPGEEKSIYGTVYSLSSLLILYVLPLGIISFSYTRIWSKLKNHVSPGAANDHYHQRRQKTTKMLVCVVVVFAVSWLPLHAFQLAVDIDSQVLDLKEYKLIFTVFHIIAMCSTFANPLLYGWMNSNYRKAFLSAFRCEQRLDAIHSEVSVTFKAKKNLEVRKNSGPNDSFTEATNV
Assay: cell-based or functional assay
Numbered stars: 1 amine (or outer) side, 2 acyl side, 3 side chain; on linkers, the order of the positions; unused ones are H or OH. Square brackets hold non-standard residues; d marks the D form. Primed or numbered codes have the meaning given here. HomPqa = 3-hydroxy-2-(4-oxo-6-piperazin-1-yl-4H-quinazolin-3-yl)-propionic acid, O=C(C(CO[*:3])n1cnc2ccc(N3CCN([*:1])CC3)cc2c1=O)[*:2]; Dqa = (6-[1,4]diazepan-1-yl-4-oxo-4H-quinazolin-3-yl)-acetic acid, O=C(Cn1cnc2ccc(N3CCCN([*:1])CC3)cc2c1=O)[*:2]; Appa = (6-Amino-2-piperazin-1-yl-9H-purin-8-yl)-acetic acid, Nc1nc(N2CCN([*:1])CC2)nc2[nH]c(CC(=O)[*:2])nc12; Cba′ = (4-Aminomethyl-biphenyl-3-yl)-acetic acid, O=C(Cc1cc(-c2ccccc2)ccc1CN[*:1])[*:2]; Bqa = ((1R,4S)-6-2-Aza-bicyclo[2.2.1]hept-5-yl-4-oxo-4H-quinazolin)-acetic acid; Ppa = (2-piperazin-1-yl-purin-7-yl)-acetic acid; NMeR = CN[C@@H](CCCNC(=N)N)C(=O)O
Provide the recorded Y2R EC50 (nM) FLIRR (Ca flux, FLIPR) for the entries that follow.
Report only the number, with the unit nM understood.

// Y2R EC50 (nM) FLIRR (Ca flux, FLIPR) lookup, binder = Ac-IK[Cba′]RHYLNWVTRQ[NMeR]Y-NH2 [Ac-Ile-Lys-Cba-Arg-His-Tyr-Leu-Asn-Trp-Val-Thr-Arg-Gln-(NMe)Arg-Tyr-NH2] , result: 0.51

// Y2R EC50 (nM) FLIRR (Ca flux, FLIPR) lookup, binder = Ac-IK[HomPqa]RHYLNWVTRQ[NMeR]Y-NH2 [Ac-Ile-Lys-HomPqa-Arg-His-Tyr-Leu-Asn-Trp-Val-Thr-Arg-Gln-(NMe)Arg-Tyr-NH2] , result: 0.6

// Y2R EC50 (nM) FLIRR (Ca flux, FLIPR) lookup, binder = Ac-IK[Appa]RHYLNWVTRQ[NMeR]Y-NH2 [Ac-Ile-Lys-Appa-Arg-His-Tyr-Leu-Asn-Trp-Val-Thr-Arg-Gln-(NMe)Arg-Tyr-NH2] , result: 0.156

// Y2R EC50 (nM) FLIRR (Ca flux, FLIPR) lookup, binder = Ac-IK[Bqa]RHYLNWVTRQ[NMeR]Y-NH2 [Ac-Ile-Lys-Bqa-Arg-His-Tyr-Leu-Asn-Trp-Val-Thr-Arg-Gln-(NMe)Arg-Tyr-NH2] , result: 0.072

// Y2R EC50 (nM) FLIRR (Ca flux, FLIPR) lookup, binder = Ac-IK[Ppa]RHYLNWVTRQ[NMeR]Y-NH2 [Ac-Ile-Lys-Ppa-Arg-His-Tyr-Leu-Asn-Trp-Val-Thr-Arg-Gln-(NMe)Arg-Tyr-NH2] , result: 0.45

// Y2R EC50 (nM) FLIRR (Ca flux, FLIPR) lookup, binder = Ac-IK[Dqa]RHYLNWVTRQ[NMeR]Y-NH2 [Ac-Ile-Lys-Dqa-Arg-His-Tyr-Leu-Asn-Trp-Val-Thr-Arg-Gln-(NMe)Arg-Tyr-NH2] , result: 0.25
